Ref: paper PMC9881579

# EXPERIMENTAL SYSTEM: T1, LHD284B
# T1 construct: de novo designed protomer; BLI: one protomer of the pair was Avi-tagged, biotinylated and immobilised; also called LHD284 protomer B; source: E. coli BL21 LEMO, purified (Ni-NTA, SEC)
# ASSAY NAME: BLI; biotinylated protomer on streptavidin biosensors, designed partner in solution; 25 °C; 10 mM HEPES pH 7.4, 150 mM NaCl, 3 mM EDTA, 0.05% Surfactant P20, 1 mg/ml BSA; global kinetic fit, 1:1 model
# SETUP CONDITIONS: both partners purified

BINDER | Kd [nM]
LHD284A (designed binder) TDELLERLRQLFEELHERGTIIIVEVHINGERQTKYLILAPKEELKKHLERIREKIEREGSSEVEVKVTSGGTTWTFNEK | 8.9
